Target: Nuclear receptor subfamily 1 group I member 2 (Homo sapiens) (UniProt O75469)
Assay: CYP3A4 induction through human pregnane X receptor (PXR) by small molecules, qHTS assay (AID 1346984); note: % is set by controls: 0 for no effect and ±100 for the full control effect; nearly all actives have a fitted effect of over 40% in size
Details: DPX-2 HepG2 PXR, CYP3A4-luciferin luminescence, 24 h; series mostly up to 46.1 µM
Excerpt: National Center for Advancing Translational Sciences [NCATS] NIH Chemical Genomics Center [NCGC] U.S. Environmental Protection Agency [EPA] National Institutes of Environmental Health Sciences [NIEHS] National Toxicology Program [NTP] The Pregnane X receptor (PXR), a ligand activated nuclear receptor plays a critical role in the regulation of genes involved in drug metabolism and transporters. Activation of PXR is responsible for unwanted adverse drug reactions. […]
Records with an inconclusive call do not appear. Calls of active or inactive are those of the source. Calls come from the whole dose curve; as a rule, active = well fitted activation curve with a large enough effect in the repeat runs; inconclusive = weak or mixed curves; inactive = no such curve, though single readings can be large or run the other way.
recorded.endpoint: outcome

Solved cases (5 shown):
INSERT INTO assay_data (compound, experimental_value) VALUES
  ('CCNC(C)Cc1cccc(C(F)(F)F)c1 (stereo unspecified)', 'inactive'),
  ('CN1[C@H]2CC[C@@H]1[C@@H](C(=O)O)[C@@H](OC(=O)c1ccccc1)C2', 'inactive'),
  ('CC(C)(O)[C@@H]1[C@H]2OC(=O)[C@@H]1[C@]1(O)C[C@H]3O[C@]34C(=O)O[C@H]2[C@]14C', 'inactive'),
  ('CC1(C)S[C@@H]2[C@H](N)C(=O)N2[C@H]1C(=O)O', 'inactive'),
  ('CCC(=O)O[C@]1(c2ccccc2)CCN(C)C[C@H]1C', 'inactive');

Prompt: Name the recorded outcome for C[N+]1([O-])[C@@H]2CC[C@H]1CC(OC(=O)C(CO)c1ccccc1)C2 (stereo partly specified) .
Response: inactive

Prompt: Name the recorded outcome for COc1ccc2c(c1)C13CCCC[C@@H]1C(C2)N(C)CC3 (stereo partly specified) .
Response: inactive

Prompt: Name the recorded outcome for CCCCCCCCCC(=O)O[C@H]1CC[C@H]2[C@@H]3CCC4=CC(=O)CC[C@]4(C)[C@H]3CC[C@]12C .
Response: inactive

Prompt: Name the recorded outcome for COc1ccc2c3c1O[C@H]1C(=O)CC[C@H]4[C@@H](C2)N(C)CC[C@]314 .
Response: inactive

Prompt: Name the recorded outcome for NCC(O)c1cccc(O)c1 (stereo unspecified) .
Response: inactive

Prompt: Name the recorded outcome for CN1[C@@H]2CC[C@H]1CC(OC1c3ccccc3CCc3ccccc31)C2 (stereo partly specified) .
Response: inactive

###

Tested on: thyroid hormone receptor (rat, GH3 cells)
Experiment: qHTS assay to identify small molecule agonists of the thyroid receptor (TR) signaling pathway (AID 743066)
Details: GH3.TRE-Luc cells, TR agonist luciferase, 24 h; series mostly up to 83.9 µM
Results filed as inconclusive are left out. The source made the active and inactive calls. Calls follow the shape of the full dose curve.
Reply using exactly one outcome from active, inactive

Prompt: Look up the recorded call for CCC(N)Cc1c[nH]c2ccccc12 (centres undefined) in this test.
Response: inactive

Prompt: Look up the recorded call for CN1CCCC(=C(c2cccs2)c2cccs2)C1 in this test.
Response: inactive

Prompt: Look up the recorded call for C[C@]12CCC(=O)C[C@@H]1CC[C@@H]1[C@@H]2CC[C@@]2(C)[C@H]1CC[C@]2(C)O in this test.
Response: inactive

Prompt: Look up the recorded call for CC(=O)[C@@]1(O)CC[C@H]2[C@@H]3CCC4=CC(=O)CC[C@]4(C)C3(F)[C@@H](O)C[C@@]21C (some centres undefined) in this test.
Response: inactive

Prompt: Look up the recorded call for CNC1(c2ccccc2Cl)CCCCC1=O (centres undefined) in this test.
Response: inactive

Prompt: Look up the recorded call for CCNCC(O)c1cccc(O)c1 (centres undefined) in this test.
Response: inactive

Prompt: Look up the recorded call for N#CC(C#N)=Cc1cc(O)c(O)c(O)c1 in this test.
Response: inactive

Prompt: Look up the recorded call for O=C(C[C@@H]1NCCC[C@H]1O)Cn1cnc2cc(Br)c(Cl)cc2c1=O in this test.
Response: inactive

Prompt: Look up the recorded call for CCC1C(C)=NN=C(c2ccc(OC)c(OC)c2)c2cc(OC)c(OC)cc21 (centres undefined) in this test.
Response: inactive

Prompt: Look up the recorded call for COc1ccc(OC)c([C@@H](O)[C@H](C)N)c1 in this test.
Response: active

Prompt: Look up the recorded call for CCC1(c2ccccc2)C(=O)NC(=O)N(C(=O)c2ccccc2)C1=O (centres undefined) in this test.
Response: inactive

Prompt: Look up the recorded call for CN1c2ccccc2C(NCCCCCCC(=O)O)c2ccc(Cl)cc2S1(=O)=O (centres undefined) in this test.
Response: inactive

Prompt: Look up the recorded call for C[C@]12C[C@H]3S[C@H]3C[C@@H]1CC[C@@H]1[C@@H]2CC[C@]2(C)[C@@H](O)CC[C@@H]12 in this test.
Response: inactive

Prompt: Look up the recorded call for S=C(S)N1CCNCC1 in this test.
Response: inactive

Prompt: Look up the recorded call for CC(=O)Oc1ccc2c3c1O[C@H]1[C@@H](OC(C)=O)C=C[C@H]4[C@@H](C2)N(C)CC[C@@]341 in this test.
Response: inactive

Prompt: Look up the recorded call for CCOC(=O)C1(c2ccccc2)CCCN(C)CC1 (centres undefined) in this test.
Response: inactive

Prompt: Look up the recorded call for C[C@@H]1[C@@H]2Cc3ccc(O)cc3[C@@]1(C)CCN2CC1CC1 in this test.
Response: inactive

Prompt: Look up the recorded call for C=CCN1CC[C@]23c4c5ccc(O)c4O[C@H]2[C@@H](O)C=C[C@H]3[C@H]1C5 in this test.
Response: inactive

Prompt: Look up the recorded call for N#CC1(N2CCCCC2)CCCCC1 in this test.
Response: inactive

Prompt: Look up the recorded call for O=c1ccc2cc(O[C@@H]3O[C@H](CO)[C@@H](O)[C@H](O)[C@H]3O)c(O)cc2o1 in this test.
Response: inactive

Prompt: Look up the recorded call for CC(=O)OCC(=O)[C@H]1CC[C@H]2[C@@H]3CC[C@H]4C[C@H](O)CC[C@]4(C)[C@H]3C(=O)C[C@]12C in this test.
Response: inactive

Prompt: Look up the recorded call for O=C1C=C2C=C[C@@H]3C[C@@]2(O1)[C@H]1CCCCN31 in this test.
Response: inactive

Prompt: Look up the recorded call for O[C@H]1[C@H]2[C@H](O)CCCN2C[C@H]1O in this test.
Response: inactive

Prompt: Look up the recorded call for c1ccc(C2(c3ccccc3)CC2C2=NCCN2)cc1 (centres undefined) in this test.
Response: inactive

Prompt: Look up the recorded call for C[C@H]1[C@H]2Cc3ccc(O)cc3[C@]1(C)CCN2CCc1ccccc1 in this test.
Response: inactive

Prompt: Look up the recorded call for Cc1nnc2n1-c1ccc(Cl)cc1C(c1ccccc1Cl)=NC2 in this test.
Response: inactive

Prompt: Look up the recorded call for NC(=O)CN1CC(O)CC1=O (centres undefined) in this test.
Response: inactive

Prompt: Look up the recorded call for CCCCNCC(O)c1ccc(O)cc1 (centres undefined) in this test.
Response: inactive

Prompt: Look up the recorded call for CCCCCN(C)CCC(O)(P(=O)(O)O)P(=O)(O)O in this test.
Response: inactive

Prompt: Look up the recorded call for O=C1CCCCC1CN1CCCCC1 (centres undefined) in this test.
Response: inactive

Prompt: Look up the recorded call for C=CCC1([C@@H](C)CCC)C(=O)NC(=O)NC1=O in this test.
Response: inactive

Prompt: Look up the recorded call for CNC(=O)Oc1ccccc1C(=O)Nc1ccccc1 in this test.
Response: inactive

Prompt: Look up the recorded call for CC(C)(O)[C@@H]1[C@H]2OC(=O)[C@@H]1[C@]1(O)C[C@H]3O[C@]34C(=O)O[C@H]2[C@]14C in this test.
Response: inactive

Prompt: Look up the recorded call for O=c1[nH]cc(N(CCCl)CCCl)c(=O)[nH]1 in this test.
Response: inactive

###

Assay: A CellTox Green Cytotoxicity Assay to monitor cytotoxicity in HEK293 cells - 0 hour (AID 1224869); note: % is set by controls: 0 for no effect and ±100 for the full control effect; nearly all actives have a fitted effect of over 50% in size
Settings: CellTox Green fluorescence; series mostly up to 76.8 µM
Calls of active or inactive are those of the source. Calls come from the whole dose curve; as a rule, active = well fitted activation curve with a large enough effect in the repeat runs; inconclusive = weak or mixed curves; inactive = flat fitted curve, though single readings scatter.
recorded.endpoint: outcome

INSERT INTO assay_data (smiles_representation, experimental_value) VALUES
  ('C[C@]12CC[C@@H](O)C[C@@H]1CC[C@@H]1[C@@H]2CC[C@]2(C)C(=O)CC[C@@H]12', 'inactive'),
  ('Clc1ccccc1-c1ccccc1Cl', 'inactive'),
  ('O=C1C(I)=CC(=C(c2cc(I)c(O)c(I)c2)c2ccccc2C(=O)O)C=C1I', 'inactive');

###

Biological target: Nuclear receptor subfamily 1 group I member 2 (Rattus norvegicus)
Test: Rat pregnane X receptor (rPXR) activation by small molecules, qHTS assay (AID 1346983); note: % is set by controls: 0 for no effect and ±100 for the full control effect; nearly all actives have a fitted effect of over 20% in size
Conditions: rPXR luciferase reporter cells, One-Glo luminescence, 24 h; hits give high values
Records with an inconclusive call do not appear.
I'd appreciate it if you could supply max activation values for the items below.
The reply should be a number in %, with the unit left off.

Prompt: Name the recorded max activation for c1cc2c(c(NC3=NCCN3)c1)CCCC2 .
Response: -5.45

Prompt: Name the recorded max activation for C#CC(C)(O)CC (stereo not given) .
Response: -2.56

Prompt: Name the recorded max activation for CN[C@H]1C[C@@H](N)[C@H](O)[C@@H](O[C@@H]2O[C@H](CO)[C@H](O)[C@@H]3OC4(O[C@H]23)O[C@H](C(N)CO)[C@H](O)[C@H](O)[C@H]4O)[C@@H]1O (stereo not given in full) .
Response: -3.01

Prompt: Name the recorded max activation for CN1[C@@H]2CC[C@H]1CC(OC1c3ccccc3CCc3ccccc31)C2 (stereo not given in full) .
Response: -2.13

Prompt: Name the recorded max activation for CC[C@H]1[C@@H]2C[C@H]3[C@@H]4N(C)c5ccccc5[C@]45C[C@@H](C2[C@H]5O)N3[C@@H]1O (stereo not given in full) .
Response: 0.0648

Prompt: Name the recorded max activation for O=C1C(I)=CC(=C(c2cc(I)c(O)c(I)c2)c2ccccc2C(=O)O)C=C1I .
Response: -1.41

Prompt: Name the recorded max activation for C[C@]12CC[C@H]3[C@@H](CCC4=CC(=O)CC[C@@]43C)[C@@H]1CC[C@H]2O .
Response: -0.613

Prompt: Name the recorded max activation for C[C@@H](CO)NC(=O)[C@@H]1C=C2c3cccc4[nH]cc(c34)C[C@H]2N(C)C1 .
Response: -0.825

Prompt: Name the recorded max activation for CN(C)[C@H](Cc1ccccc1)c1ccccc1 .
Response: 0.224

Prompt: Name the recorded max activation for NC1=NC(=O)N2CC12 (stereo not given) .
Response: -1.23
